The following molecules are shown together with reported log10 IC50 values.
target: voltage-dependent T-type calcium channel subunit alpha-1G (Cav3.2) (Homo sapiens, UniProt O95180); assay: FLIPR calcium flux assay, HEK293 cells recombinantly expressing Cav3.2; details: Cav3.2-channel, Fluo-4-AM, 3 min incubation, stimulation with 10 mM CaCl2
Sequence (O95180 whole entry): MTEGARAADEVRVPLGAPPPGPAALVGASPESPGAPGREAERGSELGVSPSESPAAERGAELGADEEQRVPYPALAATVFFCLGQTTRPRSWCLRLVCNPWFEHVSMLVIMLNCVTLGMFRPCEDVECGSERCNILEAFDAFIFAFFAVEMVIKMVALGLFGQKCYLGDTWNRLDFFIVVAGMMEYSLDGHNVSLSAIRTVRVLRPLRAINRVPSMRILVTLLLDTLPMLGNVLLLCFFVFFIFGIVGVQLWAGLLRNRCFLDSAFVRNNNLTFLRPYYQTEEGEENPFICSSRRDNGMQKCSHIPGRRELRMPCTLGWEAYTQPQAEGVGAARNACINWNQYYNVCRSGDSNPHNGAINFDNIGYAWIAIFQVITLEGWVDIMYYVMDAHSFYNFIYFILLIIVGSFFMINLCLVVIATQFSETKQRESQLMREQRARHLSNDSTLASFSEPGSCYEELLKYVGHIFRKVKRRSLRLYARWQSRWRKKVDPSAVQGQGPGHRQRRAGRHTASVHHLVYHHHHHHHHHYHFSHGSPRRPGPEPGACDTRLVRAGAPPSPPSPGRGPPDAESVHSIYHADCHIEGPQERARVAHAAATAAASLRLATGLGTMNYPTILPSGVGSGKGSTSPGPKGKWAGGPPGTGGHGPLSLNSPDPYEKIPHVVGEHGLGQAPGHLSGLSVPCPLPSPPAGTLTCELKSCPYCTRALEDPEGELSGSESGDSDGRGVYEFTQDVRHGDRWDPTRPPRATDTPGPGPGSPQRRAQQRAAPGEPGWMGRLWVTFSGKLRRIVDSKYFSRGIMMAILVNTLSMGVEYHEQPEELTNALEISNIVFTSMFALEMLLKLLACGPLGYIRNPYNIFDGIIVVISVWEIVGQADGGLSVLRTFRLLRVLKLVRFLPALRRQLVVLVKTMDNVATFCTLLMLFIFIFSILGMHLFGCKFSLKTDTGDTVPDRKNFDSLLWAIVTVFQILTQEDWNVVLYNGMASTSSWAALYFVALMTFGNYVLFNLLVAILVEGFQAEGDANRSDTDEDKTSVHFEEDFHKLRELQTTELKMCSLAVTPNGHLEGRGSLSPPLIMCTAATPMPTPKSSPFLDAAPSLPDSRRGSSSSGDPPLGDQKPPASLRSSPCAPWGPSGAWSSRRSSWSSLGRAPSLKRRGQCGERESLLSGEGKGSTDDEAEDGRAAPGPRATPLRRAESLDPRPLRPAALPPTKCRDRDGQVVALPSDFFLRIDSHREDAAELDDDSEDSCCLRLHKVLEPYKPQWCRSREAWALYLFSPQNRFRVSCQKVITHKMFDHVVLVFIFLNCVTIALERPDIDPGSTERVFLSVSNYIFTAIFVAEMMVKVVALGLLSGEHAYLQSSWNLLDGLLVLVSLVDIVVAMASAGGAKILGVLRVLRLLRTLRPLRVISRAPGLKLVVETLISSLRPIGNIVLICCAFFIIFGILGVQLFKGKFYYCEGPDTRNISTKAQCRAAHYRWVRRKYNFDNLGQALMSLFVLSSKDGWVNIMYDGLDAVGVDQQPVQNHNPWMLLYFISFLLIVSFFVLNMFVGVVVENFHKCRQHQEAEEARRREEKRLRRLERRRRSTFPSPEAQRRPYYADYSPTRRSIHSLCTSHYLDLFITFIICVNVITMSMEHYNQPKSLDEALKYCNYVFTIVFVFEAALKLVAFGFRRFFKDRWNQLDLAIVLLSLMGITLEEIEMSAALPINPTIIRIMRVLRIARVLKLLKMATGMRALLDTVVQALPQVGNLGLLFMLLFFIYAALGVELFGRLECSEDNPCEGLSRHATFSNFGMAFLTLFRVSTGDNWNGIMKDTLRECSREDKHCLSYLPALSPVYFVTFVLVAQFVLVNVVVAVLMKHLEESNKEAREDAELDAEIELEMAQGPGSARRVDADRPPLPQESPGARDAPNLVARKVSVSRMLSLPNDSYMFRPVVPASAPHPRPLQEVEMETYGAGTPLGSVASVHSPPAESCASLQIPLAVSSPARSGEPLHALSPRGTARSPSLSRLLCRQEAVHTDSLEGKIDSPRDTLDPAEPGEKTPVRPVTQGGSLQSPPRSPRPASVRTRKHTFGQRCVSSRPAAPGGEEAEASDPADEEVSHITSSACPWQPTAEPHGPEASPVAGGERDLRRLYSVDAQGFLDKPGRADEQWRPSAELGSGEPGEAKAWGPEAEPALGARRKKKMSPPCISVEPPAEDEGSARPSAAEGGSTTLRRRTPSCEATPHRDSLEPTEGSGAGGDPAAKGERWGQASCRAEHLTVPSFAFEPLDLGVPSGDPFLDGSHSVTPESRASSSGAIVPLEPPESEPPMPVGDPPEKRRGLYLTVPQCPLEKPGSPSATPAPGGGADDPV
# log10 transformed; quantity=IC50; unit=nM

The examples below pair each entry with its known result.
Molecule	log10 IC50
O=C(Cc1ccc(N2CCC2)cc1)Nc1ccn(Cc2ccc(F)cc2)n1 [Example 53]	0.83
Cc1cc(CC(=O)Nc2ccn(Cc3cc(C#N)c(F)cn3)n2)cnc1OCC(F)(F)F [Example 419]	3.97
CN(C)c1ccc(CC(=O)Nc2ccn(Cc3ccc(C#N)cn3)n2)cc1 [Example 33]	2.00
N#Cc1ccc(Cn2ccc(NC(=O)Cc3ccc(OC4CC(F)(F)C4)cc3)n2)nc1 [Example 274]	2.12

Let's switch to this molecule now.
[ask] Any idea what log10 IC50 was measured for CCN(C)c1ccc(CC(=O)Nc2ccn(Cc3ccc(OC)cc3)n2)cc1 [Example 129] ?
[reply] 2.11

---

Biological target: voltage-dependent T-type calcium channel subunit alpha-1G (Cav3.2) (Homo sapiens, UniProt O95180)
Assay: FLIPR calcium flux assay, HEK293 cells recombinantly expressing Cav3.2
Conditions: Cav3.2-channel, Fluo-4-AM, 3 min incubation, stimulation with 10 mM CaCl2
Procedure: In Vitro Methods—Measurement of Calcium Channel Flux by Means of FLIPR Assays. […] Stock solutions of test compounds are prepared to a concentration of 10 mM in DMSO. […] The kinetics of fluorescence increase are recorded for every well and the area under the fluorescence trace for every compound concentration is used to generate inhibition curves using non-linear regression sigmoidal concentration-response curve analysis with in-house software.
The following compounds are shown together with reported pIC50 values.
Remember, pIC50 is on a log scale: it is -log10 of the molar concentration.

The examples below pair each entry with its known result.
Compound	Observed
Cc1nc2ccc(CC(=O)Nc3ccn(Cc4ccc(F)cc4)n3)cc2[nH]1 [Example 137]	6.50
N#Cc1cc(Cn2ccc(NC(=O)Cc3ccc(OCC4CC(F)(F)C4)cc3)n2)ccc1F [Example 313]	7.35
Cc1cc(CC(=O)Nc2ccn(Cc3ccc(C#N)cn3)n2)cnc1OCC(F)(F)F [Example 417]	7.43
COc1ccc(Cn2ccc(NC(=O)Cc3cnc4c(ccn4C)c3)n2)cc1 [Example 215]	6.22
CN(C)c1ccc(CC(=O)Nc2ccn(Cc3ccc(F)cc3)n2)cn1 [Example 4]	7.09
CC(C)(C#N)c1ccc(CC(=O)Nc2ccn(Cc3ccc(F)c(C#N)c3)n2)cc1 [Example 335]	7.70

[ask] Any idea what pIC50 was measured for CC1(COc2ccc(CC(=O)Nc3ccn(Cc4ccc(C#N)cn4)n3)cc2)COC1 [Example 284] ?
[reply] 5.51

[ask] Any idea what pIC50 was measured for COc1nc(Cn2ccc(NC(=O)Cc3ccc(C(C)C)cc3)n2)ccc1C#N [Example 116] ?
[reply] 7.12

[ask] Any idea what pIC50 was measured for N#Cc1ccc(Cn2ccc(NC(=O)Cc3ccc(N4CCCC4)nc3)n2)nc1 [Example 276] ?
[reply] 6.73

[ask] Any idea what pIC50 was measured for CC(C)Oc1nc(Cn2ccc(NC(=O)Cc3ccc(C(C)C)cc3)n2)ccc1C#N [Example 118] ?
[reply] 7.01

[ask] Any idea what pIC50 was measured for Cc1ccc(Cn2ccc(NC(=O)Cc3ccc(N4CCC(F)(F)C4)nc3)n2)nc1C#N [Example 366] ?
[reply] 6.83

[ask] Any idea what pIC50 was measured for CC(C)c1ccc(CC(=O)Nc2ccn(Cc3ccc(C#N)c(C(F)F)n3)n2)cc1 [Example 385] ?
[reply] 7.36

[ask] Any idea what pIC50 was measured for O=C(Cc1ccc(-c2ncccn2)cc1)Nc1ccn(Cc2ccc(F)cc2)n1 [Example 85] ?
[reply] 6.52

[ask] Any idea what pIC50 was measured for COC1(c2ccc(CC(=O)Nc3ccn(Cc4ccc(F)c(F)c4)n3)cn2)COC1 [Example 258] ?
[reply] 6.03

[ask] Any idea what pIC50 was measured for O=C(Cc1ccc(CC2CC2)cc1)Nc1ccn(Cc2ccc(F)cc2)n1 [Example 158] ?
[reply] 7.96

[ask] Any idea what pIC50 was measured for CN(CC1CC1)c1ccc(CC(=O)Nc2ccn(Cc3ccc(F)c(F)c3)n2)cn1 [Example 185] ?
[reply] 8.11

[ask] Any idea what pIC50 was measured for N#Cc1ccc(Cn2ccc(NC(=O)Cc3ccc(C4(F)COC4)cc3)n2)cc1F [Example 253] ?
[reply] 7.24

[ask] Any idea what pIC50 was measured for N#Cc1cc(Cn2ccc(NC(=O)Cc3ccc(N4CCCC4)nc3)n2)ccc1F [Example 307] ?
[reply] 7.38
